target: Transcription factor Sp1 (Homo sapiens)
test: ATG_Sp1_CIS: Attagene CIS-FACTORIAL HepG2 Assay for human Specificity Protein 1 (Sp1) (AID 2282961)
run-conditions: HepG2 Sp1 cis-reporter transcription, actives raise or lower the signal
Activity calls are given as the source filed them. The calls were made as follows: active = hit-call score of the fitted dose curve at least 0.9, where 1 is the maximum; inactive = score below 0.9.
Outcome codes: Y for active, N for inactive

| compound | target | class-name |
| --- | --- | --- |
| CCCCC/C=C\CCC=O | Transcription factor Sp1 (Homo sapiens) | N |
| CC(C)c1ccc2c(C(C)C)cc(C(C)C)c(S(=O)(=O)O)c2c1 | Transcription factor Sp1 (Homo sapiens) | N |
| CCCCCc1ccc(Cl)cc1 | Transcription factor Sp1 (Homo sapiens) | Y |
| O=c1cc(-c2ccccc2)oc2ccccc12 | Transcription factor Sp1 (Homo sapiens) | N |
| CCCCCCCC[N+](C)(CCCCCCCC)CCCCCCCC | Transcription factor Sp1 (Homo sapiens) | N |
| CCC(C)(C)C1CCCCC1OC(C)=O (configuration not stated) | Transcription factor Sp1 (Homo sapiens) | N |
| NC(CO)(CO)CO | Transcription factor Sp1 (Homo sapiens) | N |
| O=C(C(Cl)Cl)N1CCOC12CCCCC2 | Transcription factor Sp1 (Homo sapiens) | N |
| Nc1ccc(-c2ccc(F)cc2)cc1 | Transcription factor Sp1 (Homo sapiens) | N |
| CCc1ccc2c(c1)C(=O)c1ccccc1C2=O | Transcription factor Sp1 (Homo sapiens) | N |
| NC(=O)OCC(COC(N)=O)c1ccccc1 | Transcription factor Sp1 (Homo sapiens) | N |
| c1ccc2c(c1)ccc1cc3c(ccc4ccccc43)cc12 | Transcription factor Sp1 (Homo sapiens) | N |
| CC1(C)O[C@@H]2C[C@H]3[C@@H]4C[C@H](F)C5=CC(=O)CC[C@]5(C)[C@H]4[C@@H](O)C[C@]3(C)[C@]2(C(=O)CO)O1 | Transcription factor Sp1 (Homo sapiens) | N |
| O=C(O)CC(C(=O)O)C(CC(=O)O)C(=O)O (configuration not stated) | Transcription factor Sp1 (Homo sapiens) | N |
| c1ccc(-c2ccccn2)nc1 | Transcription factor Sp1 (Homo sapiens) | N |
| CCc1nccnc1C | Transcription factor Sp1 (Homo sapiens) | N |
| CC(=O)OCC(=O)[C@@]12N=C(C)O[C@@H]1C[C@H]1[C@@H]3CCC4=CC(=O)C=C[C@]4(C)[C@H]3[C@@H](O)C[C@@]12C | Transcription factor Sp1 (Homo sapiens) | N |
| C=CC(=O)NC(C)(C)CS(=O)(=O)O | Transcription factor Sp1 (Homo sapiens) | N |
| C=CCOCC(O)CCl (configuration not stated) | Transcription factor Sp1 (Homo sapiens) | N |
| CCC(=O)Oc1ccc(/C(CC)=C(\CC)c2ccc(OC(=O)CC)cc2)cc1 | Transcription factor Sp1 (Homo sapiens) | Y |
| C[Si](C)(CCCN)O[Si](C)(C)CCCN | Transcription factor Sp1 (Homo sapiens) | N |
| C=C(C)C(=O)OCCO | Transcription factor Sp1 (Homo sapiens) | N |
| Cc1ccc2oc(=O)ccc2c1 | Transcription factor Sp1 (Homo sapiens) | N |
| CC1(C)[C@H]2CC[C@]1(C)C(=O)C2 | Transcription factor Sp1 (Homo sapiens) | N |
| CC1=CC[C@H]2C[C@@H]1C2(C)C | Transcription factor Sp1 (Homo sapiens) | N |
| Cc1cc(C)c(C)cc1C | Transcription factor Sp1 (Homo sapiens) | N |
| Cc1c(C)c([N+](=O)[O-])c(C(C)(C)C)c([N+](=O)[O-])c1C | Transcription factor Sp1 (Homo sapiens) | N |
